src = ChEMBL document CHEMBL3988442

target: Shiga toxin 2 (Escherichia coli O157:H7) (UniProt P09385+P09386); experiment: E. coli 0.157:H7 Shiga Toxin SOP - stx2 screening assay; type: functional; set-up: scale not given: direction of the effect not stated beside the values; details: 30 µM
attribute-measured: Percent Effect (%)
Report the value in % with no unit label.

Ask: Which measured Percent Effect belongs to CCCS(=O)(=O)NC(C)C(=O)NCc1ccc(N2CCCC2)nc1 (centres undefined) , tested on Shiga toxin 2 (Escherichia coli O157:H7) (UniProt P09385+P09386)?
Reply: 7.72

Ask: Which measured Percent Effect belongs to CC(C)c1nccn1-c1cccc(C2CCCN(C3CCCC3)C2)n1 (centres undefined) , tested on Shiga toxin 2 (Escherichia coli O157:H7) (UniProt P09385+P09386)?
Reply: 3.04

Ask: Which measured Percent Effect belongs to CCn1nc(C(C)C)cc1C(=O)NCCCOC , tested on Shiga toxin 2 (Escherichia coli O157:H7) (UniProt P09385+P09386)?
Reply: 3.47

Ask: Which measured Percent Effect belongs to COc1cc(CN(C)C(=O)NCCC2CCCO2)ccc1SC (centres undefined) , tested on Shiga toxin 2 (Escherichia coli O157:H7) (UniProt P09385+P09386)?
Reply: -6.71

Ask: Which measured Percent Effect belongs to CN(C)C(CNS(=O)(=O)c1ccc(F)cc1F)c1cccn1C (centres undefined) , tested on Shiga toxin 2 (Escherichia coli O157:H7) (UniProt P09385+P09386)?
Reply: -2.1

Ask: Which measured Percent Effect belongs to CCc1noc(CN2CCN(C(=O)N(C)C)CC2)n1 , tested on Shiga toxin 2 (Escherichia coli O157:H7) (UniProt P09385+P09386)?
Reply: 5.9

Ask: Which measured Percent Effect belongs to Cc1nc(C)n(CC2CCCCN2CC(=O)NC2CCOCC2)n1 (centres undefined) , tested on Shiga toxin 2 (Escherichia coli O157:H7) (UniProt P09385+P09386)?
Reply: -17.4

Ask: Which measured Percent Effect belongs to Cn1cccc1C(=O)N1CCCC2(CCN(CCN3CCCC3)C2=O)C1 (centres undefined) , tested on Shiga toxin 2 (Escherichia coli O157:H7) (UniProt P09385+P09386)?
Reply: -30.4

Ask: Which measured Percent Effect belongs to c1ccc(CN2CCCC(c3nccnc3-n3ccnc3)C2)cc1 (centres undefined) , tested on Shiga toxin 2 (Escherichia coli O157:H7) (UniProt P09385+P09386)?
Reply: -2.34

Ask: Which measured Percent Effect belongs to CCc1nnc(CN2CCCC(c3cc(C(F)(F)F)[nH]n3)C2)o1 (centres undefined) , tested on Shiga toxin 2 (Escherichia coli O157:H7) (UniProt P09385+P09386)?
Reply: -4.16

Ask: Which measured Percent Effect belongs to CCOc1cccc(NS(=O)(=O)c2cc(C)c(C(=O)O)s2)c1 , tested on Shiga toxin 2 (Escherichia coli O157:H7) (UniProt P09385+P09386)?
Reply: -10.3

Ask: Which measured Percent Effect belongs to Cc1ccc(N2CC3(CCN(c4nccs4)C3)C2)nn1 , tested on Shiga toxin 2 (Escherichia coli O157:H7) (UniProt P09385+P09386)?
Reply: -64.2

Ask: Which measured Percent Effect belongs to COCCN1C(=O)C[C@@H]2[C@H]1CCN2C(=O)COc1ccccc1 , tested on Shiga toxin 2 (Escherichia coli O157:H7) (UniProt P09385+P09386)?
Reply: -1.37

Ask: Which measured Percent Effect belongs to CCN1CCC(NC(=O)CN2CCCCC2Cn2cc(C)cn2)CC1 (centres undefined) , tested on Shiga toxin 2 (Escherichia coli O157:H7) (UniProt P09385+P09386)?
Reply: -21.7

Ask: Which measured Percent Effect belongs to CN(C)CCN1CCCC12CCN(C(=O)c1cccn1C)CC2 , tested on Shiga toxin 2 (Escherichia coli O157:H7) (UniProt P09385+P09386)?
Reply: -0.241

Ask: Which measured Percent Effect belongs to COc1ccc(CCN2CCN(C(=O)c3scnc3C)CC2)cc1 , tested on Shiga toxin 2 (Escherichia coli O157:H7) (UniProt P09385+P09386)?
Reply: 0.201

Ask: Which measured Percent Effect belongs to CS(=O)(=O)NCc1ncn2c1CN(C(=O)CC1CCCC1)CCC2 , tested on Shiga toxin 2 (Escherichia coli O157:H7) (UniProt P09385+P09386)?
Reply: -6.05

Ask: Which measured Percent Effect belongs to Cc1nn(C)c(C)c1C1CCCN1Cc1nc(C2CC2)no1 (centres undefined) , tested on Shiga toxin 2 (Escherichia coli O157:H7) (UniProt P09385+P09386)?
Reply: -15.8

Ask: Which measured Percent Effect belongs to CN(Cc1ccc2c(c1)OCO2)Cc1nc2c(cnn2C)c(=O)[nH]1 , tested on Shiga toxin 2 (Escherichia coli O157:H7) (UniProt P09385+P09386)?
Reply: 27.6

Ask: Which measured Percent Effect belongs to CCOC(=O)c1sc2ccsc2c1CNC(=O)C(C)(C)C#N , tested on Shiga toxin 2 (Escherichia coli O157:H7) (UniProt P09385+P09386)?
Reply: 16.1

Ask: Which measured Percent Effect belongs to CCc1nnc2n1CCN(Cc1csc(-c3ccc(C)o3)n1)C2 , tested on Shiga toxin 2 (Escherichia coli O157:H7) (UniProt P09385+P09386)?
Reply: -33.1

Ask: Which measured Percent Effect belongs to CCN1CCC(NC(=O)CN2CCc3c(nc(C4CC4)n3C)C2)CC1 , tested on Shiga toxin 2 (Escherichia coli O157:H7) (UniProt P09385+P09386)?
Reply: 7.04

Ask: Which measured Percent Effect belongs to Cn1cnc2c1CCN(Cc1csc(-c3ccsc3)n1)C2 , tested on Shiga toxin 2 (Escherichia coli O157:H7) (UniProt P09385+P09386)?
Reply: -95.3

Ask: Which measured Percent Effect belongs to c1cnnc(N2CCCC2CNCc2ccsc2)c1 (centres undefined) , tested on Shiga toxin 2 (Escherichia coli O157:H7) (UniProt P09385+P09386)?
Reply: -8.21
